PROTOCOL_DETAILS: Cytotoxicity against human 16HBE cells assessed as reduction in cell viability at 20 uM measured after 72 hrs by MTT assay relative to control
Type: cell-based
DETAILS: 16HBE (16HBE14o-) cells, read-out: INH
PROPERTY_NAME: cytotoxicity at 72 h, 20 µM (%)
Answers are plain numbers, in %.

Tell me measured cytotoxicity at 72 h, 20 µM for CCc1c2c(nc3ccc(OCc4ccc(NC(=O)CNC(=O)[C@H](CC(C)C)NC(=O)[C@H](Cc5ccccc5)NC(=O)CNC(=O)COCCOCCOCCOCc5cn(CCOCCOCCOCCNC(=O)CC[C@H](NC(=O)c6ccc(NCc7cnc8nc(N)[nH]c(=O)c8n7)cc6)C(=O)O)nn5)cc4)cc13)-c1cc3c(c(=O)n1C2)COC(=O)[C@]3(O)CC please. 24

Data provenance: ChEMBL document CHEMBL4622987
